Values were extracted from PubChem BioAssay (NCI).

Entries annotated with measured growth inhibition
# experiment description: NCI Yeast Anticancer Drug Screen. Data for the rad50 strain (AID 155);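 also: 0% = growth of vehicle-only cultures of the same strain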
# condition description: S. cerevisiae rad50 strain growth inhibition; at 50.0 µM; active compounds read high
Compounds without any hit were thinned out: in the full panel of roughly 79,000, 15% have a hit.
property label: growth inhibition (%)

compound=Cc1ccc2nc(N)nc(N)c2c1 property_label="growth inhibition" measured_value=-12.9
compound=O=C(O)c1ccccc1Nc1ccccc1 property_label="growth inhibition" measured_value=5.75
compound="CCC1(O)C(=O)Nc2ccccc2C1=O (centres undefined)" property_label="growth inhibition" measured_value=-3
compound=CC(C)(C)OC(=O)NCS(=O)(=O)N(Cc1ccccc1)Cc1ccccc1 property_label="growth inhibition" measured_value=91.8
compound="COC(=O)/C(=N/NC(C)(C)C)C(C(=O)C=C(C)C)C(=O)C(=O)Nc1ccc(Cl)cc1C (centres undefined)" property_label="growth inhibition" measured_value=2.2
compound=Cc1ccc(N=Nc2c(C)nc(N)nc2C)cc1 property_label="growth inhibition" measured_value=7.5
compound=N#Cc1c(C#N)c(-c2cccc([N+](=O)[O-])c2)n(-c2ccccc2)c1N property_label="growth inhibition" measured_value=15.9
compound=Cc1ccc(O)c(C(=O)CCCC(=O)c2cc(C)ccc2O)c1 property_label="growth inhibition" measured_value=-4.6
compound=O=C(O)c1ccc(OC2CCCCC2)cc1 property_label="growth inhibition" measured_value=6.85
compound="N#CC(/C(=N/NC(N)=S)C(=O)Nc1cccc(Cl)c1)c1ccccc1 (centres undefined)" property_label="growth inhibition" measured_value=-23.9
compound=CCOC(=O)CCC[Si](CC)(CC)CC property_label="growth inhibition" measured_value=13.9
compound="CC(=O)OC1CN(c2ccccc2)CC(OC(C)=O)CN(c2ccccc2)C1 (centres undefined)" property_label="growth inhibition" measured_value=38.5
compound="CCOC(=O)CC(=O)C1CCC2C3CC=C4CC(O)CCC4(C)C3CCC12C (centres undefined)" property_label="growth inhibition" measured_value=36.5
compound=COC(=O)c1ccccc1/C=C1\Cc2cc3c(cc2C1=O)CCC3 property_label="growth inhibition" measured_value=-31.6
compound=C/C(=N\N(C)C)c1sc(-n2nc(-c3ccccc3)cc2-c2ccccc2)nc1C property_label="growth inhibition" measured_value=10.7
compound=COC(=O)c1ccc(CSc2ccccc2NC(=S)Nc2cccc(SC)c2)o1 property_label="growth inhibition" measured_value=-15.2
compound=CCCCCCCCCCCCCCCCCCN(C)C property_label="growth inhibition" measured_value=54
compound="COC1=CC(=O)N(C)C(O)C1(C#N)OC1OC(CO)C(O)C(O)C1O (centres undefined)" property_label="growth inhibition" measured_value=5.25
compound=CS(=O)(=O)N/N=C1/C=C2C/C(=N\NS(C)(=O)=O)C=C2C1 property_label="growth inhibition" measured_value=27.6
compound="CC(=O)OC[C@]1(O)CC[C@@]23CC1C[C@@H]2CCC1C(C)(C)CCC[C@@]13C (some centres undefined)" property_label="growth inhibition" measured_value=81.5
compound=Oc1ccccc1CNc1ncc(Cl)cc1Cl property_label="growth inhibition" measured_value=24.9
compound="CC(O)C(O)C(O)C(O)C=O (centres undefined)" property_label="growth inhibition" measured_value=-13.2
compound=C=CCOc1c(C)cc(C(N)=O)cc1C property_label="growth inhibition" measured_value=4.45
compound=CC1=N/C(=C/c2ccc3c(c2)OCO3)C(=O)O1 property_label="growth inhibition" measured_value=5.05

----------
# experiment description: NCI Yeast Anticancer Drug Screen. Data for the mlh1 rad18 strain (AID 175)
# condition description: S. cerevisiae mlh1 rad18 strain growth inhibition; at 50.0 µM; active compounds read high
This is part of a sample that, as a whole, favours compounds with a hit. Of some 79,000 tested, about 15% had one in any assay. Where a SMILES comes first, the peptide text is derived from it. [ ]: non-standard residue; d: D form. The star is where a group is joined. Cbz = O=C(OCc1ccccc1)*; Aib = CC(C)(N)C(=O)O
Binning rule for recorded growth inhibition: lower level = under -10%, middle level = from -10% up to 10%, upper level = 10% and over

compound=COc1ccc2c3c(c4ccccc4c2c1)C(=O)OC3=O assigned_class="upper level"
compound=CCC(C(C)=O)C(C)=O assigned_class="lower level"
compound=Cn1c(=S)[nH]c2sc3c(c2c1=O)CCCCC3 assigned_class="middle level"
compound=Cc1c(C)c(C(Cl)(Cl)Cl)c(C)c(C)c1Br assigned_class="middle level"
compound="CC(C)(NC(=O)C(C)(C)NC(=O)OCc1ccccc1)C(=O)O (Cbz-[Aib]-[Aib]-OH)" assigned_class="lower level"
compound=O=C(O)c1ccc(/C=N\N(CCO)C2=NCCN2)cc1 assigned_class="middle level"
compound=O=C(O)/C=C/Sc1ccc(Cl)cc1 assigned_class="upper level"
compound="COC(=O)C(C)c1cccc2ccc3ccccc3c12 (stereo unspecified)" assigned_class="upper level"
compound=O=C(CC(=O)c1ccccc1)Cc1ccccc1.O=C(CC(=O)c1ccccc1)Cc1ccccc1.[Cu] assigned_class="upper level"
compound="CCOC(=O)c1cn(C)c2c1C(=O)C(C(=O)OCC)CCN2C(=O)OCC (stereo unspecified)" assigned_class="lower level"
compound=N#Cc1n[nH]n(C2CCCCC2)c1=O assigned_class="lower level"
compound=CCCCCC(=O)Cc1cc(OC)cc2c1C(=O)Oc1cc(O)c(C(=O)O)c(CC(=O)CCCCC)c1O2 assigned_class="upper level"
compound="CCC1=C(C(C)=O)[C@@H]2CCCCC(C(=O)OC)[C@@H]2C1=O (stereo partly specified)" assigned_class="middle level"
compound=CC(=O)Nc1cc(C)c(C(=O)O)c(C)c1 assigned_class="lower level"
compound="CC(C)(C)C1CCC(C(=O)c2ccccc2)CC1 (stereo unspecified)" assigned_class="middle level"
compound=c1ccc(-c2nnc(-c3ccccc3)c3nonc23)cc1 assigned_class="lower level"
compound=CCOP(=O)(OCC)c1cc(NC(=O)c2cc(NC(=O)c3cc(NC(=O)Nc4cc(C(=O)Nc5cc(C(=O)Nc6cc(P(=O)(OCC)OCC)c7cccc(P(=O)(OCC)OCC)c7c6)n(C)c5)n(C)c4)cn3C)cn2C)cc2c(P(=O)(OCC)OCC)cccc12 assigned_class="upper level"
compound=O=[N+]([O-])c1ccc2[nH]nc(OCc3ccccn3)c2c1 assigned_class="upper level"
compound=Cc1c2c(C#N)nccc2c(C)c2c1c1ccccc1n2Cc1ccccc1 assigned_class="lower level"
compound=CCN(CC)C(=S)N=N/C(C)=C1/C=CC=CN1O assigned_class="upper level"
compound=CC1(C)N=C(C(N)=O)c2ncn(CCCO)c2N1 assigned_class="middle level"
compound=CCC/C=C(/CC)COC(C)=O assigned_class="middle level"
compound="CC(=O)OC1CC2CCCCC2CC1[N+](C)(C)C (stereo unspecified)" assigned_class="lower level"
compound=C(=C\c1nc2ncccn2n1)/c1ccccc1 assigned_class="lower level"
compound=Cn1cnc2cc(N3CCOCC3)c([N+](=O)[O-])cc2c1=O assigned_class="upper level"
compound=Clc1ccc(CSc2cnnc(SCc3ccc(Cl)cc3Cl)c2SCc2ccc(Cl)cc2Cl)c(Cl)c1 assigned_class="middle level"
compound=O=C1Nc2cc([N+](=O)[O-])c(Br)cc2C1=O assigned_class="upper level"
compound="O=C(OCC(OC(=O)c1ccccc1)C(OC(=O)c1ccccc1)C(OC(=O)c1ccccc1)C(COC(=O)c1ccccc1)OC(=O)c1ccccc1)c1ccccc1 (stereo unspecified)" assigned_class="middle level"
compound=N#C/C(=C\c1ccco1)c1ccc([N+](=O)[O-])cc1 assigned_class="upper level"
compound=COc1cc(N=Nc2ccc(N)nc2N)c(OC)cc1N=Nc1ccc([N+](=O)[O-])cc1 assigned_class="upper level"
compound=CN(C)N=Nc1ccc(Cl)cc1 assigned_class="middle level"
compound=COC(=O)c1cccnc1C#N assigned_class="middle level"
compound=O=C(Nc1ccccc1C(=O)N/N=C/c1ccccc1O)c1ccccc1Cl assigned_class="upper level"
compound="O=P(c1ccccc1)(c1ccccc1)C(O)c1cccs1 (stereo unspecified)" assigned_class="upper level"
compound=CCCCNC(=S)C(=S)NCCCC assigned_class="lower level"
compound="COC(=O)C(C(Br)C(=O)c1ccccc1)C(c1ccccc1)[N+](=O)[O-] (stereo unspecified)" assigned_class="upper level"
compound=CCC(CC)(C[NH-])C[NH-].[Cl][Pt+2][Cl] assigned_class="middle level"
compound=CCOC(=O)CN1CC(C2=C(O)CN(CC(=O)OCC)C2=O)=CC1=O assigned_class="lower level"
compound=Cc1ccc(N=N/C(=N/NC(=O)c2ccccc2)c2ccc(N(CCC#N)CCC#N)cc2C)cc1 assigned_class="lower level"
compound=CCOC(=O)c1ccc(NC(=S)NCc2cccnc2)cc1 assigned_class="middle level"
compound=CCCCc1ccc(N=Nc2ccccc2)cc1 assigned_class="lower level"
compound=Cn1nnc2c(C(N)=O)ncn2c1=O assigned_class="lower level"
compound=CCCCCCCCCCCc1cc(=O)n(-c2ccccc2)n1C assigned_class="upper level"
compound=O=C(O)C(=O)/C=C(\O)c1ccc(Br)cc1 assigned_class="upper level"
